Tested on: K4 kissing-loop RNA reporter;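 note: bound reporter read as fluorescence of individual clusters on recovered sequencing chips by microscopy, with normalized cluster intensities fitted with a binding model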
Assay: apparent KD of K4 kissing-loop reporter; higher = weaker reporter binding
Details: Eterna round: R107; input ligand: theophylline 20 uM
metric: apparent KD of K4 kissing-loop reporter (nM)

>>> observed_value("CCAUUCUUUUACGAUACCAGUUUUAUUUAGUUAUUCAUAACCCUUGCCGAGUGAUGUUCGGACCCUUGGCAGCGUUUGCGAGAGG [zaadvmullin]")
411
>>> observed_value("CCAUCGCUAUUCGAUACCAGCUCCUUAGUGAUGUUAAGGUUUUACCCACUGUAGGUGGGAAGCCCUUGGCAGCGAAUAGUGAUGG [Theophylline B K4 28]")
538
>>> observed_value("AGCGACUCUUCGGAGUCGCGGCUAAGGGAUACCAGUGAUGUUGGUCACCCUUGGCAGCCCAGAAGCCAAGCCACCAAAGGUGGCA [Omei KL Theo A Exc A v5]")
114
>>> observed_value("CGCGCUGCCUGAGGAUAUAGAAACGAGUGAUGUUCGUGGACAAGAGCCAGUGAUGUUGGGUUAUUUCUAGAAGGCAGGCGAUCGU [Exclusion FMN B GF5]")
125
>>> observed_value("CCGACUGCAGGAAGGAGCGGCGGUUGGAGUGAUGUUCCAGGUAGUGAUGUUACCAAGAUCCGCCAGGUAGGUCGCCUGUUGCUCA [Same State Arginie B GF 12]")
148
>>> observed_value("UCCUGCAAUCUGCCACGAAAGUGGAUUGAUACCAGAGUCGAAAGACUCCCUUGGCAGCGAGUGAUGUUCGACGCAGGUAAAUAAA [MatMod 5 - Jieux - Exclusion - Theophylline A]")
234
>>> observed_value("GGAGGGAUCUCGGCCGCCACUCAUAAGAAAUGGGCCUCAGGGAUAUAGUGAUGUUAUGUAAAGAAGAGGACCGGGAGAAAGAAGG [ExTryptoB.Dc]")
348
>>> observed_value("UUCGGAUAAGUCCUUCCGAAGAAGCCGGAAGGAGCGACUCAAUAGUCAGGUAGGUCGCCGGCAAGCGUAGUGAUGUUAUGCUCAC [Arg A SS t6]")
713
>>> observed_value("GGAUAGGACAGAGGAUAUGGUAGUGAUGUUACCAAACUGGUUACUCUUGUCAGAAAACUGGCAUUUCCAGAAGGCUGUCCUAUCG [KL-XFMN-B11]")
84.9
>>> observed_value("AUUUUGAGUGAUGUUCAUAUCUAUUCUGAAGGAGCGCUAAAUAAGGCAGGUAGGUCGCGGAAUAUAUAUAUAUAUAUAUAUAUAU [KL-SSArg-A30]")
624

* * *

System: MS2 coat protein
Assay: apparent KD of MS2 coat protein; designed switch direction (-1 OFF switch, 1 ON switch): -1; higher = weaker reporter binding
Conditions: Eterna round: R95; input ligand: microRNA oligo, concentration not stated
metric: apparent KD of MS2 coat protein

>>> observed_value("AAGAAACAUGAGGAUCACCCAUGUGAGGAUAUGUAAAAUAAAAUAAAAGAAAUAAUAAACAGAAGGCACAAAGG [Mat - Mod of Hog D16] (puzzle: Exclusion 1)")
"29.8 nM"
>>> observed_value("ACAAGAAUUUUGCUCGUAAAGUAGAAACGCGAGAGCGGGACAUGAGGAUCACCCAUGUAAAGGCAGUUGGUGGAGAU [JR_SV3TOV2_Sub028] (puzzle: Sensor v3, turn-off variant 2)")
"53.2 nM"
>>> observed_value("UUAAUGUGAGGAUAUCAGGUGUGAUAGAGUAAUGGUAAAUCUGAGAAGGCACAUGAGGAUCACCCAUGUUCUUC [Mat - Exclusion 4 - Mod of JL - D58] (puzzle: Exclusion 4)")
"21.5 nM"
>>> observed_value("CGUACUGAAGUGAGGAUAUUGUCUCGGAUACGAAACAAGAAGGCACAUGAGGAUCACCCAUGUAAACAGUACGA [Malc #30 mod 10] (puzzle: Brourd's mod of Exclusion 4)")
"15.6 nM"
>>> observed_value("AUCAUGUAAGGAUAUCUUAUAUGGAUCGAAAGAUCAAGUUAAGAGAAGGUACAUGAGGAUCACCCAUGUAUAAC [Ex4-3: 33] (puzzle: Exclusion 4)")
"19.4 nM"
>>> observed_value("GCUUGGCGAGGAUAUACAUGAGGAUCACCCAUGUGAGAAGAAUAAGUGAGGAAGAAAAGUAGAAGGCGCUGAGG [Mat - Exclusion 3 - Mod of Salish D62] (puzzle: Exclusion 3)")
"30.4 nM"
>>> observed_value("CGGAGCAGAGGGAGAUCCAACAUGAGGAUCACCCAUGUCUCAUAAGCUUUUUGCUCAUCUUAUUGUACCUUGGUGCU [JL ViennaUCT Edcesobi mod 5] (puzzle: Sensor v3, turn-off variant 1)")
"15.4 nM"
>>> observed_value("AAGUACCGUCACGAUAGUGAUGGUACAACAAGCAGUGAUACAUGAGGAUCACCCAUGUCCUCAAUUGCUCGUCUUAU [Sensor 3 - 75] (puzzle: Sensor v3, turn-off variant 2)")
"307 nM"
>>> observed_value("AAGAAACAUGAGGAUCACCCAUGUGAGGAUAUGACGAAGAAAAGAAAAGAAAGAAGAAUCAGAAGGCACAAAGG [salish99-ex1_r3_052] (puzzle: Exclusion 1)")
"40.8 nM"
>>> observed_value("CUUCACCCACCAGAGCACACCCACAUACCUGCUCAGGUGACAUGAGGAUCACCCAUGUUUUUUGCCCGUCUUAUCUU [Tilevere] (puzzle: Sensor v3, turn-off variant 2)")
"144 nM"
>>> observed_value("UCAUACGGUGAGGAUAUCUCCACUAAAGUGUGUAGAGAAGGCGCUACAUGAGGAUCACCCAUGUUUAUGGGCAG [Ex-6 Malc#13] (puzzle: Exclusion 6)")
"109 nM"
>>> observed_value("AAGAGAGCAGGAUAUCGGUUUUGCGACAUGAGGAUCACCCAUGUGAGCCGAGUCCAACGCCGAGAAGGGCUAAAAU [Onesis] (puzzle: Exclusion 5)")
"53.3 nM"
>>> observed_value("AAGAAACAUGAGGAUCACCCAUGUGAGGAUAUGACGAAGAAAAGAAAAGAAAGAAGAGUCAGAAGGCACAAAGG [salish99-ex1_r3_067] (puzzle: Exclusion 1)")
"100 nM"
>>> observed_value("AAGAAACAUGAGGAUCACCCAUGUCAGGAUAUCUCGAAAAGCAUAGAAAUAUGCGAAGAGAGAAGGGACAAGAA [ChP Ext 10-04-2015] (puzzle: Exclusion 1)")
"56.1 nM"
>>> observed_value("GAAAAGAAAGGAUAUACAGGGAAAUGAACCGCACGUAAACCACAUGAGGAUCACCCAUGUAGAAGGUUCAGUGC [Edenusra] (puzzle: Exclusion 2)")
"10.6 nM"
>>> observed_value("UUUUACAUAGGAUAUAGUUGCUUUUACAUGAGGAUCACCCAUGUCUCUCCUCUCUCUCUUCUAGAAGGAUGUUUCU [JR_E5_Sub011] (puzzle: Exclusion 5)")
"53.3 nM"
>>> observed_value("UGUCUGUCAGGAUAUCCAGAAGAGAAGAAAGUAAGAUGAGUGGAGAAGGGACAUGAGGAUCACCCAUGUAAUUA [My frist] (puzzle: Exclusion 4)")
"29.7 nM"
